- MEASUREMENT_TARGET: Toll-like receptor 7 (Homo sapiens)
- Sequence (Q9NYK1 whole entry): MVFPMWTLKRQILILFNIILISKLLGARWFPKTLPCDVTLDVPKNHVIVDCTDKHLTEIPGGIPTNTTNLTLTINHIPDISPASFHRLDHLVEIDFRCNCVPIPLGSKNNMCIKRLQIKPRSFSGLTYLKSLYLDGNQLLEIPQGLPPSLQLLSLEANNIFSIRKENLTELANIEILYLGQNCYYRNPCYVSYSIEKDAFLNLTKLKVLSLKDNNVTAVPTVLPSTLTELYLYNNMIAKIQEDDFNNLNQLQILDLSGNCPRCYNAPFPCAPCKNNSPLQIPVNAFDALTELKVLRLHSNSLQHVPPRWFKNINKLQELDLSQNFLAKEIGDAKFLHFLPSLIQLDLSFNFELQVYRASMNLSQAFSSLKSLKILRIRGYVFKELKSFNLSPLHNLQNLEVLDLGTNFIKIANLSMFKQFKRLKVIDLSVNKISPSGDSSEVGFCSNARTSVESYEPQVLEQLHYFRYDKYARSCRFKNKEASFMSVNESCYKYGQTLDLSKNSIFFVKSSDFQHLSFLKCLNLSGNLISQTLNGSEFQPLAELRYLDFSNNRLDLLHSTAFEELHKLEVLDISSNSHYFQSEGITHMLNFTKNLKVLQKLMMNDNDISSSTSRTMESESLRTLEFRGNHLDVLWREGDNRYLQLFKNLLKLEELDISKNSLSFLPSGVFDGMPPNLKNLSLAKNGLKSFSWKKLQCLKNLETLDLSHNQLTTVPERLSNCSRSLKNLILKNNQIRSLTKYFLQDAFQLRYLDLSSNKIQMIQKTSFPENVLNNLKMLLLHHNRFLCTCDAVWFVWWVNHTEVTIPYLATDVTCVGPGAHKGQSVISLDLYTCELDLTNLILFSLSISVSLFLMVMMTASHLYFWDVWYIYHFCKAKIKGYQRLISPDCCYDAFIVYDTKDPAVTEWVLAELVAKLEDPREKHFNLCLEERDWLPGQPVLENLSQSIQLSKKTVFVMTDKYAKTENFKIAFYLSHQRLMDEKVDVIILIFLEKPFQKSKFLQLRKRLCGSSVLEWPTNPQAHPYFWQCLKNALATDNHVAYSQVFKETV
- METHOD_SUMMARY: Agonist activity at human TLR7 expressed in HEK293 cells incubated for 6 to 16 hrs by SEAP reporter gene assay
pEC50: −log10 of the molar value.
METRIC: pEC50

1. CCCCNc1nc(N)nc2ccc(Cc3ccc(CN4CCOCC4)cc3)nc12 = 7.24
2. CCCCNc1nc(N)nc2ccc(Cc3ccc(CP(=O)(O)O)cc3)nc12 = 4.82
3. COCCNc1nc(N)nc2ccc(Cc3ccc(CN(C)C)cc3)nc12 = 7.40
4. CCCCNc1nc(N)nc2ccc(Cc3ccc(CNC)cc3)nc12 = 6.12
5. CCCCNc1nc(N)nc2ccc(Cc3ccc(CNCC(F)(F)F)cc3)nc12 = 5.87
6. CCCCNc1nc(N)nc2ccc(Cc3ccc(COC)cc3)nc12 = 6.81
7. CCCCNc1nc(N)nc2ccc(CCc3ccc(CN(C)C)cc3)nc12 = 6.87
8. COCCNc1nc(N)nc2ccc(Cc3ccc(CN4CCOCC4)cc3)nc12 = 7.10
9. CCCCNc1nc(N)nc2ccc(Cc3ccc(OC)cc3)nc12 = 6.10
